SYSTEM: Growth hormone secretagogue receptor type 1 (Homo sapiens)
ASSAY PROCEDURE: Activity at human GHS-R1a receptor in rat pituitary cells assessed as GH release
pEC50: −log10 of the molar value.
PARAMETER MEASURED: pEC50

The following molecules have reported results that may help.
# MOLECULE, PARAMETER MEASURED, MEAS VALUE
measured = [
    ("CC(C)(N)C(=O)N[C@H](CCCc1ccccc1)C(=O)N1CCC2(CC1)CS(=O)(=O)c1ccccc12", "pEC50", 8.96),
    ("CC(C)(N)C(=O)N[C@H](COCc1ccccc1)C(=O)N1CCC2(CC1)CSc1ccccc12", "pEC50", 8.00),
]

[1] CCOC(=O)[C@@]1(Cc2ccccc2)CCCN(C(=O)[C@@H](Cc2c[nH]c3ccccc23)NC(=O)C(C)(C)N)C1
[2] CN(CCc1ccccc1NS(C)(=O)=O)C(=O)[C@@H](Cc1ccc2ccccc2c1)N(C)C(=O)/C=C/CC(C)(C)N
[3] CC(C)(N)C(=O)N[C@H](CCCc1ccccc1)C(=O)N1CCC2(CC1)C[S+]([O-])c1ccccc12 (stereo partly drawn)
[4] CC(C)(N)C(=O)N[C@H](COCc1ccccc1)C(=O)N1CCC2(CC1)CS(=O)(=O)c1ccccc12
Problem: Kindly order the items shown according to pEC50, from the highest value down. Put the labels in the order asked and list them.
Solution: 1, 3, 4, 2

---

SYSTEM: Growth hormone secretagogue receptor type 1 (Homo sapiens, UniProt Q92847)
Sequence (Q92847 whole entry): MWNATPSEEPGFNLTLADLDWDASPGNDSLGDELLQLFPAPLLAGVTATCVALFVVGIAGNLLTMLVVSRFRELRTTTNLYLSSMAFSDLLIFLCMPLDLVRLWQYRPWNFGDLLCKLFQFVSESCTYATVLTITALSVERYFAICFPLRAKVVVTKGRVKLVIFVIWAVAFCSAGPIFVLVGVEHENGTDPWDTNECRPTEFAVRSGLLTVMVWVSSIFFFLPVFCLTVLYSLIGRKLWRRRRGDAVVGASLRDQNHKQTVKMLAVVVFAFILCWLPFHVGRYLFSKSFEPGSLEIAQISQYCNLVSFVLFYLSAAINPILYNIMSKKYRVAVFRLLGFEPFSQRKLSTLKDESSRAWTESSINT
ASSAY PROCEDURE: Activity at human GHS-R1a receptor in rat pituitary cells assessed as GH release
pEC50: −log10 of the molar value.
PARAMETER MEASURED: pEC50

Answered examples (3):
# COMPOUND, SYSTEM, pEC50
data = [
    ("CC(C)(N)C(=O)N[C@H](Cc1c[nH]c2ccccc12)C(=O)N1CCC2(CC1)C[C@@H](O)c1ccccc12", "Growth hormone secretagogue receptor type 1 (Homo sapiens, UniProt Q92847)", 9.22),
    ("CC(C)(N)C(=O)N[C@H](COCc1ccccc1)C(=O)N1CCC2(CC1)C[S+]([O-])c1ccccc12 (some centres undefined)", "Growth hormone secretagogue receptor type 1 (Homo sapiens, UniProt Q92847)", 8.07),
    ("CC(C)(N)C(=O)N[C@H](CCCc1ccccc1)C(=O)N1CCC2(CC1)CSc1ccccc12", "Growth hormone secretagogue receptor type 1 (Homo sapiens, UniProt Q92847)", 8.32),
]

[P] CC(C)(N)C(=O)N[C@H](CCCc1ccccc1)C(=O)N1CCC2(CC1)COc1ccccc12
[Q] CN(CCc1cccs1)C(=O)[C@@H](Cc1ccc(-c2ccccc2)cc1)N(C)C(=O)/C=C/CC(C)(C)N
Problem: Select the item whose pEC50 value is smaller, choosing between P and Q . # respond with the chosen item's label
Solution: Q

[I] CNC(C)(C)C/C=C/C(=O)N(C)[C@H](Cc1ccc2ccccc2c1)C(=O)N(C)Cc1ccccc1
[II] CNC(C)(C)C/C=C/C(=O)N(C)[C@H](Cc1ccc2ccccc2c1)C(=O)N(C)CCc1cccs1
Problem: I would appreciate it if you could say which entry, I or II , has the lower pEC50 value. Could you answer with the label of the item you picked?
Solution: I

[I] CNC(=O)[C@@H](Cc1ccccc1)N(C)C(=O)[C@@H](Cc1ccc2ccccc2c1)N(C)C(=O)/C=C/CC(C)(C)N [TABIMORELIN]
[II] CC(C)(N)C(=O)N[C@H](CCc1ccccc1)C(=O)N1CCC2(CCc3ccccc32)CC1
Problem: // pick min by pEC50: I , II # reply format: chosen label
Solution: II

---

SYSTEM: Growth hormone secretagogue receptor type 1 (Homo sapiens)
ASSAY PROCEDURE: Activity at human GHS-R1a receptor in rat pituitary cells assessed as GH release
Assay type: cell-based, Pituitary gland cell
pEC50: −log10 of the molar value.
PARAMETER MEASURED: pEC50

A selection of reference data follows.
# ENTRY SMILES, PARAMETER MEASURED, MEAS VALUE
rows = [
    ("CC(C)(N)C(=O)N[C@H](Cc1c[nH]c2ccccc12)C(=O)N1CCC2(CCc3ccccc32)CC1", "pEC50", 7.85),
    ("CC(C)(N)C(=O)N[C@H](COCc1ccccc1)C(=O)N1CCC2(CCc3ccccc32)CC1", "pEC50", 7.77),
    ("CCN1N=C2CCN(C(=O)[C@@H](COCc3ccccc3)NC(=O)C(C)(C)N)C[C@]2(Cc2ccccc2)C1=O", "pEC50", 8.40),
    ("CC(C)(N)C(=O)N[C@H](Cc1c[nH]c2ccccc12)C(=O)N1CCC2(CC1)CSc1ccccc12", "pEC50", 8.25),
    ("CCNC(=O)NCc1ccccc1-c1ccc(CN2C(=O)[C@H](NC(=O)C(C)(C)N)CCc3ccccc32)cc1", "pEC50", 8.22),
]

[a] CC(C)(N)C(=O)N[C@@H]1CCc2ccccc2N(Cc2ccc(-c3ccccc3CNC(=O)NCCO)cc2)C1=O
[b] CC(C)(N)C(=O)N[C@H](CCc1ccccc1)C(=O)N1CCC2(CC1)CS(=O)(=O)c1ccccc12
Problem: Given a and given b , which shows the smaller recorded pEC50? Provide the label of your selected option as the answer.
Solution: b

---

SYSTEM: Growth hormone secretagogue receptor type 1 (Homo sapiens, UniProt Q92847)
ASSAY PROCEDURE: Activity at human GHS-R1a receptor in rat pituitary cells assessed as GH release
pEC50: −log10 of the molar value.
PARAMETER MEASURED: pEC50

Completed entries (count: 4):
# ENTRY SMILES, SYSTEM, MEAS VALUE
measured = [
    ("CC(C)(N)C(=O)N[C@H](Cc1c[nH]c2ccccc12)C(=O)N1CCC2(CC1)CS(=O)(=O)c1ccccc12", "Growth hormone secretagogue receptor type 1 (Homo sapiens, UniProt Q92847)", 8.68),
    ("CN1N=C2CCN(C(=O)[C@@H](COCc3ccccc3)NC(=O)C(C)(C)N)C[C@]2(Cc2ccccc2)C1=O", "Growth hormone secretagogue receptor type 1 (Homo sapiens, UniProt Q92847)", 8.52),
    ("CNC(=O)NCc1ccccc1-c1ccc(CN2C(=O)[C@H](NC(=O)C(C)(C)N)CCc3ccccc32)cc1", "Growth hormone secretagogue receptor type 1 (Homo sapiens, UniProt Q92847)", 9.00),
    ("CN(CCc1ccccc1OCCO)C(=O)[C@@H](Cc1ccc2ccccc2c1)N(C)C(=O)/C=C/CC(C)(C)N", "Growth hormone secretagogue receptor type 1 (Homo sapiens, UniProt Q92847)", 8.30),
]

[I] CNC(C)(C)C/C=C/C(=O)N(C)[C@H](Cc1ccc2ccccc2c1)C(=O)N(C)CCc1ccccc1OCCO
[II] CC(C)(N)C(=O)N[C@H](CCCc1ccccc1)C(=O)N1CCC2(CCc3ccccc32)CC1
[III] CC(C)(N)C(=O)N[C@H](CCc1ccccc1)C(=O)N1CCC2(CC1)CSc1ccccc12
[IV] CC(C)(N)C(=O)N[C@H](COCc1ccccc1)C(=O)N1CCC2=NNC(=O)[C@@]2(Cc2ccccc2)C1
Problem: Arrange items by their pEC50 values in increasing order. Reply with the labels, ordered as the question asks.
Solution: III, II, I, IV
(III: 7.24, II: 8.00, I: 8.30, IV: 8.52)
